Let's look at some compounds and their measured Apoptosis, % (cell cycle analysis).
Test system: K562 cells
Test: Cell cycle analysis (propidium iodide, flow cytometry)
Assay type: cell-based
Details: K562, 5 µM, 48 h
Parameter: Apoptosis, % (cell cycle analysis) (%)

| Compound | Unit string | Test value |
| --- | --- | --- |
| Cc1cn(-c2cc(NC(=O)c3cccc(C(=O)N4CCN(C(=O)c5cccc(F)c5)CC4)c3)cc(C(F)(F)F)c2)cn1 [Compound 15] | % | 20.54 |
| CS(=O)(=O)CCNCc1ccc(-c2ccc3ncnc(Nc4ccc(OCc5cccc(F)c5)c(Cl)c4)c3c2)o1 [Lapatinib, reference compound] | % | 28.92 |
| Cc1cn(-c2cc(NC(=O)c3cccc(C(=O)N4CCN(C(=O)c5ccccc5F)CC4)c3)cc(C(F)(F)F)c2)cn1 [Compound 14] | % | 25.10 |
| Cc1cn(-c2cc(NC(=O)c3cccc(C(=O)Nc4cccc(C(F)(F)F)c4)c3)cc(C(F)(F)F)c2)cn1 [Compound 5] | % | 37.20 |
| CNC(=O)c1cc(Oc2ccc(NC(=O)Nc3ccc(Cl)c(C(F)(F)F)c3)cc2)ccn1 [Sorafenib, reference compound] | % | 44.20 |

----------
Let's look at some compounds and their measured melting point.

| Compound | melting point |
| --- | --- |
| Cc1cn(-c2cc(NC(=O)c3cccc(C(=O)Nc4cc(-n5cnc(C)c5)cc(C(F)(F)F)c4)c3)cc(C(F)(F)F)c2)cn1 [Compound 10] | 304 to 306 °C |
| Cc1cn(-c2cc(NC(=O)c3ccc(C(=O)N4CCN(C(=O)c5ccccc5F)CC4)cc3)cc(C(F)(F)F)c2)cn1 [Compound 26] | 142 to 145 °C |
| O=C(Nc1cccc(C(F)(F)F)c1)c1cccc(C(=O)N2CCN(C(=O)c3ccccc3F)CC2)c1 [Compound 8] | 145 to 147 °C |
| CNC(=O)c1cc(Oc2ccc(NC(=O)c3cccc(C(=O)Nc4cc(-n5cnc(C)c5)cc(C(F)(F)F)c4)c3)cc2)ccn1 [Compound 11] | 313 to 315 °C |
| COc1ccc(C(=O)N2CCN(C(=O)c3ccc(C(=O)Nc4cccc(C(F)(F)F)c4)cc3)CC2)cc1 [Compound 19] | 202 to 205 °C |
| O=C(Nc1cccc(C(F)(F)F)c1)c1cccc(C(=O)N2CCN(C(=O)c3cccc(F)c3)CC2)c1 [Compound 9] | 97 to 101 °C |
| CNC(=O)c1cc(Oc2ccc(NC(=O)c3cccc(C(=O)Nc4cccc(C(F)(F)F)c4)c3)cc2)ccn1 [Compound 6] | 258 to 260 °C |
| COc1ccc(C(=O)N2CCN(C(=O)c3cccc(C(=O)Nc4cccc(C(F)(F)F)c4)c3)CC2)cc1 [Compound 7] | 72 to 74 °C |
| COc1ccc(C(=O)N2CCN(C(=O)c3ccc(C(=O)Nc4cc(-n5cnc(C)c5)cc(C(F)(F)F)c4)cc3)CC2)cc1 [Compound 25] | 212 to 214 °C |
| O=C(Nc1cccc(C(F)(F)F)c1)c1ccc(C(=O)N2CCN(C(=O)c3ccccc3F)CC2)cc1 [Compound 20] | 215 to 217 °C |
| Cc1cn(-c2cc(NC(=O)c3ccc(C(=O)Nc4cccc(C(F)(F)F)c4)cc3)cc(C(F)(F)F)c2)cn1 [Compound 17] | 208 to 210 °C |
| Cc1cn(-c2cc(NC(=O)c3ccc(C(=O)N4CCN(C(=O)c5cccc(F)c5)CC4)cc3)cc(C(F)(F)F)c2)cn1 [Compound 27] | 110 to 113 °C |
| COc1ccc(C(=O)N2CCN(C(=O)c3cccc(C(=O)Nc4cc(-n5cnc(C)c5)cc(C(F)(F)F)c4)c3)CC2)cc1 [Compound 13] | 144 to 146 °C |
